Sourced from ChEMBL document CHEMBL1201862

Tested on: OVCAR-4
Assay: NCI tumour cell line growth inhibition, 48 h
Active and inactive are the calls of the source. Rule as the data show it: active = GI50 up to about 1.1 µM and inactive = higher.
Assign GI50 to each entry below.

Param item = C[C@]12CCC(=O)C=C1CC[C@@H]1[C@@H]2C(=O)C[C@@]2(C)[C@H]1CC[C@]2(O)C(=O)CO ; retrieve measured GI50.
> 100 µM (inactive)

Could you tell me which GI50 is on file for CCC1(c2ccc(N3C(=O)c4ccccc4C3=O)cc2)CCC(=O)NC1=O (centres undefined) ?
> 10 µM (inactive)

Please report the recorded GI50 for O=C(CC1(O)C(=O)Nc2c(Cl)cc(Cl)cc21)c1ccc(Br)cc1 (centres undefined) .
12.4 µM (inactive)

For the compound COc1cc([C@H]2c3[nH]c4ccccc4c3C[C@H]3COC(=O)N32)cc(OC)c1O , what GI50 is on record?
39.3 µM (inactive)
